Biological target: P3Z chimeric PD-1 receptor (human)
Sequence (chain, as listed by the source mutant limits assumed): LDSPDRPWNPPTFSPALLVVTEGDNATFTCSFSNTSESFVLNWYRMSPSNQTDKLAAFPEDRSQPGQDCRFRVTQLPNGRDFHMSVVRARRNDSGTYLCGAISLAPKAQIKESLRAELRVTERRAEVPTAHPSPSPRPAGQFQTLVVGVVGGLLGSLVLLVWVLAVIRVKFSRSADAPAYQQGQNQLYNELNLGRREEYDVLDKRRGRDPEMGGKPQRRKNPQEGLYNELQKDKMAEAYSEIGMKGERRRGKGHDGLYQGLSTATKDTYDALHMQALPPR
Test: cell-based or functional assay
ENDPOINT NAME: IL-2 release in HuT78/P3Z, Max inhibition (%)
Report the figure in % without appending any unit label.

Form field IL-2 release in HuT78/P3Z, Max inhibition, entry Fab hu317-2_N73T / hu317-1_Vκ (Fab, V domains shown) VH: QVQLQESGPGLVKPSETLSLTCTVSGFSLTSYGVHWIRQPPGKGLEWLGVIWAGGSTNYNPSLKSRLTISKDTSKSQVSLKMSSVTAADTAVYYCARAYGNYWYIDVWGQGTTVTVSS VL: DIVMTQSPDSLAVSLGERATINCKASQSVSNDVAWYQQKPGQPPKLLINYAFHRFTGVPDRFSGSGYGTDFTLTISSLQAEDVAVYYCHQAYSSPYTFGGGTKLEIK : 98.3

Form field IL-2 release in HuT78/P3Z, Max inhibition, entry Fab hu317-2_K71V / hu317-1_Vκ (Fab, V domains shown) VH: QVQLQESGPGLVKPSETLSLTCTVSGFSLTSYGVHWIRQPPGKGLEWLGVIWAGGSTNYNPSLKSRLTISVDNSKSQVSLKMSSVTAADTAVYYCARAYGNYWYIDVWGQGTTVTVSS VL: DIVMTQSPDSLAVSLGERATINCKASQSVSNDVAWYQQKPGQPPKLLINYAFHRFTGVPDRFSGSGYGTDFTLTISSLQAEDVAVYYCHQAYSSPYTFGGGTKLEIK : 96.5

Form field IL-2 release in HuT78/P3Z, Max inhibition, entry Fab hu317-2_S76N / hu317-1_Vκ (Fab, V domains shown) VH: QVQLQESGPGLVKPSETLSLTCTVSGFSLTSYGVHWIRQPPGKGLEWLGVIWAGGSTNYNPSLKSRLTISKDNSKNQVSLKMSSVTAADTAVYYCARAYGNYWYIDVWGQGTTVTVSS VL: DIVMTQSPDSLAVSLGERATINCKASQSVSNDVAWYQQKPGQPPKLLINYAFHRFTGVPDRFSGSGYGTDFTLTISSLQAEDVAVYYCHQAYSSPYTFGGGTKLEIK : 98.6

Form field IL-2 release in HuT78/P3Z, Max inhibition, entry Fab hu317-1_Vh / HU317-2_G100Q (Fab, V domains shown) VH: QVQLQESGPGLVKPSETLSLTCTVSGFSLTSYGVHWIRQPPGKGLEWLGVIWAGGSTNYNPSLKSRLTISKDNSKSQVSLKMSSVTAADTAVYYCARAYGNYWYIDVWGQGTTVTVSS VL: DIVMTQSPDSLAVSLGERATINCKASQSVSNDVAWYQQKPGQPPKLLINYAFHRFTGVPDRFSGSGYGTDFTLTISSLQAEDVAVYYCHQAYSSPYTFGQGTKLEIK : 98.9

Form field IL-2 release in HuT78/P3Z, Max inhibition, entry Fab hu317-2_V78F / hu317-1_Vκ (Fab, V domains shown) VH: QVQLQESGPGLVKPSETLSLTCTVSGFSLTSYGVHWIRQPPGKGLEWLGVIWAGGSTNYNPSLKSRLTISKDNSKSQFSLKMSSVTAADTAVYYCARAYGNYWYIDVWGQGTTVTVSS VL: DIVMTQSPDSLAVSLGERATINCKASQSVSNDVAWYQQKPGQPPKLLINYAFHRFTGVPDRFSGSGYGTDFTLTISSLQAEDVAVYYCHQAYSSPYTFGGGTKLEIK : 98
